Every entry's value here was drawn from the supplement of paper PMC11246515.

- protocolDetails: total protein half-life in vivo (active degradation + dilution); higher = more stable protein
- details: wild type E. coli NCM3722; growth: P-lim chemostat; doubling time 6 h
observationType: total protein half-life in vivo (h)
Use h as the unit, but write only the number.

The sequence listed as MTIAIVIGTHGWAAEQLLKTAEMLLGEQENVGWIDFVPGENAETLIEKYNAQLAKLDTTKGVLFLVDTWGGSPFNAASRIVVDKEHYEVIAGVNIPMLVETLMARDDDPSFDELVALAVETGREGVKALKAKPVEKAAPAPAAAAPKAAPTPAKPMGPNDYMVIGLARIDDRLIHGQVATRWTKETNVSRIIVVSDEVAADTVRKTLLTQVAPPGVTAHVVDVAKMIRVYNNPKYAGERVMLLFTNPTDVERLVEGGVKITSVNVGGMAFRQGKTQVNNAVSVDEKDIEAFKKLNARGIELEVRKVSTDPKLKMMDLISKIDK has a reported total protein half-life in vivo of 6.11

The sequence listed as MKSLSYKRIYKSQEYLATLGTIEYRSLFGSYSLTVDDTVFAMVSDGELYLRACEQSAQYCVKHPPVWLTYKKCGRSVTLNYYRVDESLWRNQLKLVRLSKYSLDAALKEKSTRNTRERLKDLPNMSFHLEAILGEVGIKDVRALRILGAKMCWLRLRQQNSLVTEKILFMLEGAIIGIHEAALPVARRQELAEWADSLTPKQEFPAELE has a reported total protein half-life in vivo of 3.79

The sequence listed as MKKTLLAAGAVLALSSSFTVNAAENDKPQYLSDWWHQSVNVVGSYHTRFGPQIRNDTYLEYEAFAKKDWFDFYGYADAPVFFGGNSDAKGIWNHGSPLFMEIEPRFSIDKLTNTDLSFGPFKEWYFANNYIYDMGRNKDGRQSTWYMGLGTDIDTGLPMSLSMNVYAKYQWQNYGAANENEWDGYRFKIKYFVPITDLWGGQLSYIGFTNFDWGSDLGDDSGNAINGIKTRTNNSIASSHILALNYDHWHYSVVARYWHDGGQWNDDAELNFGNGNFNVRSTGWGGYLVVGYNF [P0A927] has a reported total protein half-life in vivo of 6.08

* * *

- protocolDetails: total protein half-life in vivo (active degradation + dilution); higher = more stable protein
- details: wild type E. coli NCM3722; growth: N-lim chemostat; doubling time 6 h
Provide the recorded total protein half-life in vivo for the entries that follow.
The reply should consist of the numeric value with the unit placed after it.

The sequence listed as MKKKTTLSEEDQALFRQLMAGTRKIKQDTIVHRPQRKKISEVPVKRLIQEQADASHYFSDEFQPLLNTEGPVKYVRPDVSHFEAKKLRRGDYSPELFLDLHGLTQLQAKQELGALIAACRREHVFCACVMHGHGKHILKQQTPLWLAQHPHVMAFHQAPKEYGGDAALLVLIEVEEWLPPELP [P0A8B2] has a reported total protein half-life in vivo of 2.99 h

The sequence listed as MRWLPFIAIFLYVYIEISIFIQVAHVLGVLLTLVLVIFTSVIGMSLVRNQGFKNFVLMQQKMAAGENPAAEMIKSVSLIIAGLLLLLPGFFTDFLGLLLLLPPVQKHLTVKLMPHLRFSRMPGGGFSAGTGGGNTFDGEYQRKDDERDRLDHKDDRQD has a reported total protein half-life in vivo of 6.12 h

The sequence listed as MEALGMIETRGLVALIEASDAMVKAARVKLVGVKQIGGGLCTAMVRGDVAACKAATDAGAAAAQRIGELVSVHVIPRPHGDLEEVFPIGLKGDSSNL [P0ABF4] has a reported total protein half-life in vivo of 4.8 h
